HepSE_liver fatty values recorded for Hepatotoxicity

Query string: Find HepSE_liver fatty (Hepatotoxicity) for the entry CCc1nn(CCCN2CCN(c3cccc(Cl)c3)CC2)c(=O)n1CCOc1ccccc1
Result string: 0

Query string: Request: CC(=O)N[C@H]1[C@H](OCCCO)OC(C(=O)O)=C[C@@H]1O
Result string: 0

Query string: Request: Cc1ccc(S(=O)(=O)NC(=O)NN2CCCCCC2)cc1 [TOLAZAMIDE]
Result string: 0

Query string: Request: NCCCCCC(=O)O
Result string: 0

Query string: Request: CCCCCNC(=N)N/N=C/c1c[nH]c2ccc(OC)cc12
Result string: 0

Query string: Request: CC(=O)O[C@H]1C[C@@H]2CC[C@@H]3[C@H](CC[C@@]4(C)[C@H]3C[C@H]([N+]3(C)CCCCC3)[C@@H]4OC(C)=O)[C@@]2(C)C[C@@H]1N1CCCCC1
Result string: 0

Query string: Request: CCCCc1nc(Cl)c(CO)n1Cc1ccc(-c2ccccc2-c2nn[nH]n2)cc1
Result string: 0

Query string: Request: CCCCN1CCCCC1C(=O)Nc1c(C)cccc1C (stereo not given)
Result string: 0

Query string: Request: O=C1Nc2ccc(Cl)cc2C(c2ccccc2Cl)=NC1O (stereo not given)
Result string: 0

Query string: Request: Nc1ccn([C@@H]2CS[C@H](CO)O2)c(=O)n1
Result string: 1

Query string: Request: CCOc1ccccc1OCCN[C@H](C)Cc1ccc(OC)c(S(N)(=O)=O)c1
Result string: 0

Query string: Request: O=C1CN=C(c2ccccc2Cl)c2cc([N+](=O)[O-])ccc2N1
Result string: 0

Query string: Request: Cc1cccc(CN2CCN(C(c3ccccc3)c3ccc(Cl)cc3)CC2)c1 (stereo not given)
Result string: 0

Query string: Request: Cc1nnc2n1-c1ccc(Cl)cc1C(c1ccccc1)=NC2
Result string: 0

Query string: Request: CC1(C)S[C@@H]2[C@H](NC(=O)Cc3ccccc3)C(=O)N2[C@H]1C(=O)O
Result string: 0

Query string: Request: Nc1nc(N)c2nc(-c3ccccc3)c(N)nc2n1
Result string: 0

Query string: Request: Cc1ccc(S(=O)(=O)NC(=O)NN2CC3CCCC3C2)cc1 (stereo not given) [GLICLAZIDE]
Result string: 0

Query string: Request: O=C(O)c1cc(=O)c2c(OCC(O)COc3cccc4oc(C(=O)O)cc(=O)c34)cccc2o1
Result string: 0

Query string: Request: CC1(C)O[C@@H]2C[C@H]3[C@@H]4CCC5=CC(=O)C=C[C@]5(C)[C@H]4[C@@H](O)C[C@]3(C)[C@]2(C(=O)CO)O1 [DESONIDE]
Result string: 0

Query string: Request: O=[As][As+](=O)[O-] (stereo not given) [ARSENIC TRIOXIDE]
Result string: 0

Query string: Request: NCC1(CC(=O)O)CCCCC1
Result string: 0

Query string: Request: CC(C)=CCN1CC[C@]2(C)c3cc(O)ccc3C[C@H]1[C@H]2C [(+)-PENTAZOCINE]
Result string: 0

Query string: Request: NCCC(O)(P(=O)(O)O)P(=O)(O)O
Result string: 0

Query string: Request: CNC1(C)C2CCC(C2)C1(C)C (stereo not given)
Result string: 0

Query string: Request: CCC1(c2ccc(N)cc2)CCC(=O)NC1=O (stereo not given) [AMINOGLUTETHIMIDE]
Result string: 0

Query string: Request: CC(=O)OCC(CCn1cnc2cnc(N)nc21)COC(C)=O
Result string: 0

Query string: Request: COC(=O)C1=C(C)NC(C)=C(C(=O)OC)C1c1ccccc1[N+](=O)[O-]
Result string: 0

Query string: Request: CCN(CC)CCOC(=O)c1ccc(N)cc1Cl
Result string: 0

Query string: Request: CC[C@H](C)[C@@H]1NC(=O)[C@H](Cc2ccc(O)cc2)NC(=O)[C@@H](N)CSSC[C@@H](C(=O)N2CCC[C@H]2C(=O)N[C@@H](CC(C)C)C(=O)NCC(N)=O)NC(=O)[C@H](CC(N)=O)NC(=O)[C@H](CCC(N)=O)NC1=O
Result string: 0

Query string: Request: CCCCC(=O)N(Cc1ccc(-c2ccccc2-c2nnn[nH]2)cc1)[C@H](C(=O)O)C(C)C
Result string: 0

Query string: Request: CC(=O)N(CC(O)CN(C(C)=O)c1c(I)c(C(=O)NCC(O)CO)c(I)c(C(=O)NCC(O)CO)c1I)c1c(I)c(C(=O)NCC(O)CO)c(I)c(C(=O)NCC(O)CO)c1I (stereo not given)
Result string: 0

Query string: Request: CN1CCC(=C2c3ccccc3C=Cc3ccccc32)CC1
Result string: 0

Query string: Request: Cc1cc(C(=O)NNCc2ccccc2)no1
Result string: 0

Query string: Request: C[C@]12CC[C@H]3[C@@H](CCC4=CC(=O)CC[C@@H]43)[C@@H]1CC[C@@H]2O
Result string: 0

Query string: Request: O=C1CCc2ccc(OCCCCN3CCN(c4cccc(Cl)c4Cl)CC3)cc2N1
Result string: 0
